- target of assay: HLA-C*14:02
- assay info: IEDB peptide-MHC binding, purified MHC/direct/fluorescence; filed as Kd, often an IC50 or EC50 that approximates it; bounds were set here for any values at or beyond the usual limits of such assays
- reported conditions: source organism: Brucella abortus S19
pKd: −log10 of the molar value.
assay readout: pKd

Quick check: pKd of "YWMGGTTYF" ?
≥ 9.00

###

- target of assay: HLA-B*48:01
- assay info: IEDB peptide-MHC binding, purified MHC/direct/fluorescence; filed as Kd, often an IC50 or EC50 that approximates it; bounds were set here for any values at or beyond the usual limits of such assays
- reported conditions: source organism: Giardia lamblia ATCC 50803
assay readout: Kd

Quick check: Kd of "RPALVVDTP" ?
≥ 20 µM

###

Overview of recorded pKd for various sequences
- target of assay: HLA-B*27:05
- assay info: IEDB peptide-MHC binding, purified MHC/direct/fluorescence; filed as Kd, often an IC50 or EC50 that approximates it; bounds were set here for any values at or beyond the usual limits of such assays
- reported conditions: source organism: Giardia lamblia ATCC 50803
pKd: −log10 of the molar value.

AAFLDDNAF : ≤ 4.70
ITASKDLCF : ≤ 4.70
AIPYFYKGK : ≤ 4.70
RPALVVDTP : ≤ 4.70
AEFWDVFLS : ≤ 4.70
RTRFFCIPK : 6.49

# ---- query sequence ----
Quick check: pKd of "IRNLVKRYK" ?
5.92

###

- target of assay: HLA-A*24:02
- assay info: IEDB peptide-MHC binding, purified MHC/competitive/radioactivity; filed as Kd, often an IC50 or EC50 that approximates it; bounds were set here for any values at or beyond the usual limits of such assays
- reported conditions: source organism: Mammarenavirus choriomeningitidis
assay readout: Kd

Quick check: Kd of "WCSQTNYQY" ?
≥ 77.5 µM

###

- target of assay: HLA-C*06:02
- assay info: IEDB peptide-MHC binding, purified MHC/direct/fluorescence; filed as Kd, often an IC50 or EC50 that approximates it; bounds were set here for any values at or beyond the usual limits of such assays
- reported conditions: source organism: Entamoeba histolytica HM-1:IMSS
assay readout: Kd (µM)
Report the value in µM with no unit label.

Quick check: Kd of "FAMRLLQAV" ?
0.844

###

Overview of recorded pKd for various sequences
- target of assay: HLA-A*29:02
- assay info: IEDB peptide-MHC binding, purified MHC/competitive/radioactivity; filed as Kd, often an IC50 or EC50 that approximates it; bounds were set here for any values at or beyond the usual limits of such assays
- reported conditions: source organism: Mammarenavirus brazilense
Please express pKd as -log10 of the molar concentration.

GLNISGYNY : 7.77

# ---- query sequence ----
Quick check: pKd of "SLTEEFYHSY" ?
5.84

###

- target of assay: HLA-B*83:01
- assay info: IEDB peptide-MHC binding, purified MHC/competitive/fluorescence; filed as Kd, often an IC50 or EC50 that approximates it; bounds were set here for any values at or beyond the usual limits of such assays
- reported conditions: source organism: Influenza A virus (A/Fort Monmouth/1/1947-mouse adapted(H1N1))
assay readout: Kd

Lab note: need Kd for "MQIRGFVYF" on HLA-B*83:01, anyone have it?
≥ 5 µM
